Known IC50 of a selection of compounds
System: CCRF-CEM
Test: Antitumor activity against human CCRF-CEM cells assessed as growth inhibition after 48 hrs
Assay type: functional
Details: read-out: ID50 (the source's name)
observable: IC50 (µg/mL)

[[record]]
record_smiles = "Cc1ccc(C(=O)N[C@@H]2C(=O)N[C@H](C(C)C)C(=O)N3CCC[C@H]3C(=O)N(C)CC(=O)N(C)[C@@H](C(C)C)C(=O)O[C@@H]2C)c2c1Oc1c(c(C(=O)N[C@@H]3C(=O)N[C@H](C(C)C)C(=O)N4CCC[C@H]4C(=O)N(C)CC(=O)N(C)[C@@H](C(C)C)C(=O)O[C@@H]3C)c3nc(C)c(=O)oc3c1C)N2"
numeric_value = 0.012

[[record]]
record_smiles = "Cc1ccc(C(=O)N[C@@H]2C(=O)N[C@H](C(C)C)C(=O)N3CCC[C@H]3C(=O)N(C)CC(=O)N(C)[C@@H](C(C)C)C(=O)O[C@@H]2C)c2c1Oc1c(c(C(=O)N[C@@H]3C(=O)N[C@H](C(C)C)C(=O)N4CCC[C@H]4C(=O)N(C)CC(=O)N(C)[C@@H](C(C)C)C(=O)O[C@@H]3C)c3nc(CC(=O)O)c(=O)oc3c1C)N2"
numeric_value = 0.012

[[record]]
record_smiles = "CCc1nc2c(C(=O)N[C@@H]3C(=O)N[C@H](C(C)C)C(=O)N4CCC[C@H]4C(=O)N(C)CC(=O)N(C)[C@@H](C(C)C)C(=O)O[C@@H]3C)c3c(c(C)c2oc1=O)Oc1c(C)ccc(C(=O)N[C@@H]2C(=O)N[C@H](C(C)C)C(=O)N4CCC[C@H]4C(=O)N(C)CC(=O)N(C)[C@@H](C(C)C)C(=O)O[C@@H]2C)c1N3"
numeric_value = 0.012

